Data origin, for the record: paper PMC7826789

- Test system: GAK
- MEASUREMENT CONTEXT: Compound Concentration (nM):1000;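 note: KINOMEscan scanMAX binding as percent activity remaining versus control; lower means stronger binding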
Give Percent Control for every item shown.
Numeric only. Scale: %

Dear colleague, I am looking for the recorded Percent Control of the following compound: CC(C)COC(=O)c1ccc2c(c1)/C(=C/Nc1ccc(S(N)(=O)=O)cc1)C(=O)N2 [GW416981X]
40

What do we get for COc1cc(C)c(N(C)C(=O)CN(C)C)cc1Nc1nc(Nc2cccc(F)c2C(N)=O)c2cc[nH]c2n1 [GSK2219385] ?
56

Then NS(=O)(=O)c1ccc(N/N=C2\C(=O)Nc3ccc(C(=O)NCCc4c[nH]cn4)cc32)cc1 [GW300660X] ?
100

Can you handle COc1cccc(-n2ncc3c(N/N=C/c4ccncc4)ncnc32)c1 [GW784752X] next?
48

====

- Tested on: PDGFRB
- MEASUREMENT CONTEXT: Compound Concentration (nM):1000
I would appreciate it if you labelled entries true (1) when Percent Control is 30% or higher, otherwise false (0).

Would you say COc1cccc(-c2c[nH]c3c(N/N=C/c4ccncc4)ncnc23)c1 [GW814408X] shows Percent Control at minimum 30%?
false (0)

Can you check Cc1cc(O)cc(C)c1/C=C/c1cncc(C(N)=O)c1 [GW435821X] next?
false (0)

Same question for CCS(=O)(=O)c1ccc(OC)c(Nc2ncc(-c3cccc(OC)c3)o2)c1 [GW580509X] please.
false (0)

What do you get for NS(=O)(=O)c1ccc(N/N=C2\C(=O)Nc3ccc(C(=O)NCCc4c[nH]cn4)cc32)cc1 [GW300660X] ?
true (1)

Same again, this time with CC1=C(C(=O)Nc2ccc3[nH]ncc3c2)C(c2ccc(Cl)c(Cl)c2)CC(=O)N1 (centres unmarked) [GSK299115A]
true (1)

Ok, now COc1cccc(-n2ncc3c(N/N=C/c4ccncc4)ncnc32)c1 [GW784752X]
true (1)

Then what about the molecule COc1cc(C)c(N(C)C(=O)CN(C)C)cc1Nc1nc(Nc2cccc(F)c2C(N)=O)c2cc[nH]c2n1 [GSK2219385] ?
true (1)

Input CC1=C(C(=O)Nc2ccc3[nH]ncc3c2)C(c2ccc3ccccc3c2)CC(=O)N1 (centres unmarked) [GSK270822A]
true (1)

What would you report for Nc1ncnc2occ(-c3ccc(NC(=O)Nc4cc(C(F)(F)F)ccc4F)cc3)c12 [GW770249X] ?
false (0)

Field entry: NS(=O)(=O)c1ccc(Nc2ncc(-c3ccccc3)o2)cc1 [GW572399X]
false (0)

Quick one: COc1ccccc1-c1cc(/C=C2\C(=O)Nc3ncc(Br)cc32)cc(Br)c1O [GW442130X]
true (1)

Another: C[C@@H](Oc1cc(-n2cnc3ccc(OC4CCN(C)CC4)cc32)sc1C(N)=O)c1ccccc1Cl [GSK579289A]
false (0)

Moving on to the next molecule: COc1cc(/C=N/Nc2ncnc3[nH]ncc23)ccc1O [GW578748X]
true (1)

# repeat for NS(=O)(=O)c1ccc(N/N=C2\C(=O)Nc3ccc(Cl)cc32)cc1 [GW280670X]
false (0)

Item: COc1cc(N2CCN(C(C)C)CC2)ccc1Nc1nc(Nc2ccc(F)cc2C(=O)NC[C@@H](O)CO)c2cc[nH]c2n1 [GSK1392956A]
true (1)

Next molecule: CCS(=O)(=O)c1ccc(OC)c(Nc2ncc(-c3cccc(F)c3)o2)c1 [GW621970X]
false (0)

Now consider COc1ccc2c(-c3ccnc(Nc4cccc(OC(F)(F)F)c4)n3)cnn2n1 [GW810372X] .
true (1)

====

- Test system: CASK
- MEASUREMENT CONTEXT: Compound Concentration (nM):1000
I'd appreciate it if you could supply Percent Control values for the items below.
Quick note: give the figure in %, leave out the unit.

Quick one: Percent Control of CCS(=O)(=O)c1ccc(OC)c(Nc2ncc(-c3cccc(OC)c3)o2)c1 [GW580509X] ?
95

Please give the result for C/C(Nc1ccc(S(N)(=O)=O)cc1)=C1/C(=O)Nc2ccccc21 [GW335962X] too.
87

// query: COc1ccc(COc2ccc(Cc3cnc(N)nc3N)cc2OC)cc1 [GW632580X]
98

Same read-out for CN1CCN(C(=O)c2ccc(NC(=O)Nc3ccc(N(C)c4ccnc(Nc5ccc(CS(C)(=O)=O)cc5)n4)cc3)cc2)CC1.Cl [GW830263A] ?
85

Entry to check: CCS(=O)(=O)c1ccc(OC)c(Nc2ncc(-c3cccc(F)c3)o2)c1 [GW621970X]
90

Cool, now Nc1ncnc2occ(-c3ccc(NC(=O)Nc4cc(C(F)(F)F)ccc4F)cc3)c12 [GW770249X]
95

Next compound: COc1cc(N2CCN(C(C)C)CC2)ccc1Nc1nc(Nc2ccc(F)cc2C(=O)NC[C@@H](O)CO)c2cc[nH]c2n1 [GSK1392956A]
78

What do you get for NS(=O)(=O)c1ccc(N/N=C2\C(=O)Nc3ccc(Cl)cc32)cc1 [GW280670X] ?
100

Cool, now O=C(Nc1n[nH]c2nc(-c3ccc(O)cc3)c(Br)cc12)C1CC1
100

====

- Test system: RIOK1
- MEASUREMENT CONTEXT: Compound Concentration (nM):1000
So basically: Percent Control at 60% or higher? That is condition met. Lower than 60%? That is condition not met.

Determine whether this compound has Percent Control no lower than 60%: NS(=O)(=O)c1ccc(Nc2ncc(-c3ccccc3)o2)cc1 [GW572399X]
condition met

Try Cl.O=S1CCN(Cc2ccc(-c3ccc4ncnc(Nc5ccc(OCc6ccccc6)c(F)c5)c4c3)o2)CC1 [GW576924A] next.
condition met

Lookup COc1cc(N2CCN(C(C)C)CC2)ccc1Nc1nc(Nc2ccc(F)cc2C(=O)NC[C@@H](O)CO)c2cc[nH]c2n1 [GSK1392956A]
condition met

Another compound to look at: Nc1ncnc2occ(-c3ccc(NC(=O)Nc4cc(C(F)(F)F)ccc4F)cc3)c12 [GW770249X]
condition not met

Param item: COc1cc(/C=N/Nc2ncnc3[nH]ncc23)ccc1O [GW578748X]
condition not met

Record: COc1ccc2c(-c3ccnc(Nc4cccc(OC(F)(F)F)c4)n3)cnn2n1 [GW810372X]
condition not met

Also check O=C(Nc1n[nH]c2nc(-c3ccc(O)cc3)c(Br)cc12)C1CC1
condition not met

And O=C1Nc2ccc(C(=O)c3ccco3)cc2C1=Cc1cc(Cl)c(O)c(Cl)c1 [GW406108X] ?
condition not met

One more compound: CC1=C(C(=O)Nc2ccc3[nH]ncc3c2)C(c2ccc(Cl)c(Cl)c2)CC(=O)N1 (centres unmarked) [GSK299115A]
condition met

Let us now turn to NS(=O)(=O)c1ccc(N/N=C2\C(=O)Nc3ccc(-c4cnco4)cc32)cc1
condition not met

Record: COc1cc2ncn(-c3cc(O[C@H](C)c4ccccc4Cl)c(C(N)=O)s3)c2cc1OC [GSK237701A]
condition not met

Repeat for the following compound: COc1ccccc1-c1cc(/C=C2\C(=O)Nc3ncc(Br)cc32)cc(Br)c1O [GW442130X]
condition met

CCc1ccc(Oc2nccc(-c3c(-c4ccc(F)cc4)ncn3C3CCNCC3)n2)cc1 , same question.
condition not met

Try the compound COc1ccc(COc2ccc(Cc3cnc(N)nc3N)cc2OC)cc1 [GW632580X]
condition not met

====

- Tested on: IRAK4
- MEASUREMENT CONTEXT: Compound Concentration (nM):1000
Kind request: treat 90% as inclusive, so Percent Control at 90% or higher is Fulfilled, anything lower is Not fulfilled.

# check: Percent Control of COc1cc2ncn(-c3cc(O[C@H](C)c4ccccc4Cl)c(C(N)=O)s3)c2cc1OC [GSK237701A] is greater than or equal to 90%
Fulfilled

// next record NS(=O)(=O)c1ccc(N/N=C2\C(=O)Nc3ccc(C(=O)NCc4ccncc4)cc32)cc1 [GW300657X]
Fulfilled

And for Cl.c1ccc(Cc2nc3ccc(Nc4ncnc5ccccc45)cc3[nH]2)cc1 [GR269666A] ?
Fulfilled

Could you do the same for CN1CCN(C(=O)c2ccc(NC(=O)Nc3ccc(N(C)c4ccnc(Nc5ccc(CS(C)(=O)=O)cc5)n4)cc3)cc2)CC1.Cl [GW830263A] , please?
Not fulfilled

Similarly, O=C1Nc2ccc(C(=O)c3ccco3)cc2C1=Cc1cc(Cl)c(O)c(Cl)c1 [GW406108X] ?
Not fulfilled

====

- System: CSNK2A2
- MEASUREMENT CONTEXT: Compound Concentration (nM):1000
MEASURED PROPERTY: Percent Control (%)
Use % as the unit, but write only the number.

Which Percent Control value is on record for COc1ccccc1-c1cc(/C=C2\C(=O)Nc3ncc(Br)cc32)cc(Br)c1O [GW442130X] ?
72

Try the compound NS(=O)(=O)c1ccc(Nc2ncc(-c3ccccc3)o2)cc1 [GW572399X]
53

Can you check COc1ccc2[nH]c3c4[nH]c5ccc(OC)cc5c4c4c(c3c2c1)C(=O)NC4=O [GW296115X] next?
56

What about this compound? COc1cc2ncnc(Nc3ccc4c(cnn4Cc4ccccc4)c3)c2cc1OC.Cl [GW282449A]
100

Thanks! And CCS(=O)(=O)c1ccc(OC)c(Nc2ncc(-c3cccc(OC)c3)o2)c1 [GW580509X] ?
4.4

Continue with Cl.O=C(O[C@H]1CN[C@H](C#Cc2cc3ncnc(Nc4ccc5c(cnn5Cc5ccccc5)c4)c3s2)C1)N1CCOCC1 [GSK200398A]
70

Moving on to the next compound: NS(=O)(=O)c1ccc(N/N=C2\C(=O)Nc3ccc(C(=O)NCc4ccncc4)cc32)cc1 [GW300657X]
28

Could you do the same for NS(=O)(=O)c1ccc(N/N=C2\C(=O)Nc3ccc(C(=O)NCCc4c[nH]cn4)cc32)cc1 [GW300660X] , please?
1.4
